# studySystem: equine FcRn (large alpha subunit p51) in complex with equine beta-2-microglobulin (equine) (UniProt F6XZ61)
# experimentalProtocol: SPR (Biacore), pH 6
The reader will find reported Kd values listed item by item below.
measuredQuantity: Kd (nM)

- binder: "equine IgG7 A426S mutant (antibody, part only; not given: variable domains, not shown: another chain or arm of the molecule) constant: ASTTAPKVFPLASHSAATSGSTVALGCLVSSYFPEPVTVSWNSGALTSGVHTFPSVLQSSGLYSLSSMVTVPASSLKSQTYICNVAHPASSTKVDKKIVIKECGGCPTCPECLSVGPSVFIFPPKPKDVLMISRTPTVTCVVVDVGHDFPDVQFNWYVDGVETHTATTEPKQEQNNSTYRVVSILAIQHKDWLSGKEFKCKVNNQALPAPVQKTISKPTGQPREPQVYVLAPHRDELSKNKVSVTCLVKDFYPTDIDIEWKSNGQPEPETKYSTTPAQLDSDGSYFLYSKLTVETNRWQQGTTFTCSVMHEALHNHYTEKSVSKSPGK"
  endpointUnit: "nM"
  recordedNumber: 40.4
- binder: "equine IgG7 A426I mutant (antibody, part only; not given: variable domains, not shown: another chain or arm of the molecule) constant: ASTTAPKVFPLASHSAATSGSTVALGCLVSSYFPEPVTVSWNSGALTSGVHTFPSVLQSSGLYSLSSMVTVPASSLKSQTYICNVAHPASSTKVDKKIVIKECGGCPTCPECLSVGPSVFIFPPKPKDVLMISRTPTVTCVVVDVGHDFPDVQFNWYVDGVETHTATTEPKQEQNNSTYRVVSILAIQHKDWLSGKEFKCKVNNQALPAPVQKTISKPTGQPREPQVYVLAPHRDELSKNKVSVTCLVKDFYPTDIDIEWKSNGQPEPETKYSTTPAQLDSDGSYFLYSKLTVETNRWQQGTTFTCIVMHEALHNHYTEKSVSKSPGK"
  endpointUnit: "nM"
  recordedNumber: 12.6
